- target_desc: T1, PUF4 RNA-binding domain (Saccharomyces cerevisiae, UniProt P25339 537-888)
- T1 sequence: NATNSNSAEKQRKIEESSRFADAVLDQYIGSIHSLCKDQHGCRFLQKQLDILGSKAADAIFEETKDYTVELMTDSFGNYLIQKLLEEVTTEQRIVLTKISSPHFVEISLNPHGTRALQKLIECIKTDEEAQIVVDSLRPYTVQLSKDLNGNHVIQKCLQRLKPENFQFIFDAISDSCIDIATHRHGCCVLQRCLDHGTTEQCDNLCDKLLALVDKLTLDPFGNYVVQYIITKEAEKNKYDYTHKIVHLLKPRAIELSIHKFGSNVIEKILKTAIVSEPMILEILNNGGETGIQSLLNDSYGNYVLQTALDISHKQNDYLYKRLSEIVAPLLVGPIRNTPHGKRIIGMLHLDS
- test_details: Mg; RNA-MaP; 20 mM Na-HEPES pH 7.4, 30 mM KOAc, 0.75 mM MgCl2, 0.1% Tween-20, 5% glycerol, 0.1 mg/mL BSA, 2 mM DTT; 25 C; 0.0125-409.6 nM protein
- settings: tags: N-His6-TEV cleaved; C-SNAP kept, Cy3B-labelled; label: tethered on chip by stalled RNA polymerase
measurement_kind: Kd (nM)
Answer format: numeric, nM implied, no suffix.

Known Kd results, listed for orientation:
Ie_S2_P4E.1_K4.1_C4.1_H4.1_A4.1_[+7TT]_F4.1_T4.1 (ssRNA) RNA: UUUGAUUAAUAUGAUAUCGUUCUUUCUUGUAUAUUUUAUUCUUUCUCGAUAUCAUAUUAAUCUUU
2.3
Id_iii_S4_P3E.7_K3.3_C3.3_[T-1A]_H3.3_A3.1_F3.1_T3.2 (ssRNA) RNA: UUUGACAACUGAUCGUUCUUUCUUCAACACUAUAUAUUCUUUCUCGAUCAGUUGUCUUU
137

Here is another binder to look at.
Request: Which Kd value is on record for Id_ii_S2_P5E.3_K5.2_C5.2_[C-2T]_[T-1A]_H5.2_A5.1_F5.1_T5.2_[T11G]_[A12T] (ssRNA) RNA: UUUGAUUAAUAUGAUAUCGUUCUUUCUUAUAUAUUAUUAGUUUCUUUCUCGAUAUCAUAUUAAUCUUU ?
Response: 41.6
